protocol: qHTS for compounds that reverse cellular toxicity of Amyloid beta (A-beta) peptide in yeast: LOPAC Validation Assay (AID 720559);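 also: plate controls were DMSO for no effect and equimolar ferric chloride plus clioquinol rescue for full effect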
condition.context: yeast expressing A-beta; series mostly up to 46.1 µM
Calls of active or inactive are those of the source. Calls follow the shape of the dose curve; as a rule, active = well fitted curve in the direction sought with a large enough effect; inconclusive = small, poorly fitted or top-dose-only effect, or another doubt; inactive = no such curve, though single readings can be large or run the other way.
attribute.measured: outcome

* N[C@@H](CCC(=O)N[C@H](CSN=O)C(=O)NCC(=O)O)C(=O)O | inactive
* O=C1Nc2ccc(I)cc2/C1=C/c1cc(Br)c(O)c(Br)c1 | inactive
* COc1cc(CC(=O)O)ccc1O | inactive

----------
protocol: qHTS assay to identify inhibitors of the type 1 interferon - major histocompatibility complex class I in skeletal muscle: Counter screen cell viability and HiBit confirmation (AID 1347412); also: % is scaled to controls: 0 for no effect and ±100 for the full control effect; nearly all actives have a fitted effect of over 60% in size
condition.context: iHSKM muscle cells + IFN-b, HiBiT or CellTiter-Glo, 24 h; Viability; at 45.9 µM (top of the series)
Inconclusive results are not listed.
attribute.measured: activity change, negative = inhibition (%)
Express your answer in %, writing the number without its unit.

• O=c1[nH]c2cc(Cl)ccc2c(O)c1-c1ccc(Oc2ccccc2)cc1 = -0.671
• Brc1c(Br)c(Br)c2[nH]cnc2c1Br = 3.14
• O=C1Cc2c([nH]c3ccc(Br)cc23)-c2ccccc2N1 = -21.6

Now let's try a different one.
The value of activity change, negative = inhibition measured for the molecule `C=C1C(=O)O[C@@H]2[C@H]3O[C@]3(C)CCC=C(C)CC[C@@H]12` turned out to be 52.5

----------
protocol: Validation screen for small molecules that induce DNA re-replication in MCF 10A normal breast cells (AID 463097); also: nearly all actives have a fitted effect of over 60% in size
condition.context: MCF 10A cells, DNA re-replication phenotype imaging; series mostly up to 46.1 µM
Results filed as inconclusive are left out. Calls of active or inactive are those of the source. Calls come from the whole dose curve; as a rule, active = well fitted activation curve with a large enough effect; inconclusive = small, poorly fitted or top-dose-only effect; inactive = flat fitted curve, though single readings scatter.
Thanks in advance; please answer with one of these: active, inactive

Use the examples below as a reference point.
• O=C1Cc2c([nH]c3ccc(Br)cc23)-c2ccccc2N1 = active
• C[C@@H](NCCc1ccc(O)cc1)[C@@H](O)c1ccc(O)cc1 = inactive
• CCSC(=N)N = inactive
• CC[N+](CC)(CC)CC(=O)Nc1c(C)cccc1C = inactive
• COC(=O)C1=C(C)NC(C)=C([N+](=O)[O-])C1c1ccccc1C(F)(F)F (configuration not stated) = inactive

Prompt: Please indicate how the test categorized `CC(C)C[C@H](NC(=O)[C@H](O)[C@H](N)Cc1ccccc1)C(=O)O` .
Response: inactive

Prompt: Please indicate how the test categorized `NOCC(=O)O` .
Response: inactive

Prompt: Please indicate how the test categorized NCCC1CCCC(CCN)N1 (configuration not stated) .
Response: inactive

Prompt: Please indicate how the test categorized CC1=C(C(=O)O)N2C(=O)[C@@H](NC(=O)C(N)C3=CCC=CC3)[C@H]2SC1 (some centres not stated) .
Response: inactive

----------
protocol: qHTS assay for measurement of the activity of small molecule inhibitors on Zika virus induced Caspase-3 activity in human astrocytoma cells (AID 1224859);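 also: plate controls were ZIKV-infected untreated cells for no effect and uninfected cells for full effect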
condition.context: SNB-19 ZIKV-induced caspase-3/7, luminescence, 6 h; series mostly up to 45.7 µM
The source made the active and inactive calls. Calls come from the whole dose curve; as a rule, active = well fitted inhibition curve with a large enough effect; inconclusive = small, poorly fitted or top-dose-only effect; inactive = no such curve, though single readings can be large or run the other way.
attribute.measured: outcome

// worked examples, outcome included
* COc1ccc(C(=O)NCc2cccnc2)cc1C(=O)NCc1cccnc1 | inactive
* CC[n+]1c(/C=C/C=C2/N(C)c3ccccc3C2(C)C)sc2ccccc21 | inactive
* CCCC[C@@]1(C2CCCC2)Cc2cc(OCC(=O)O)c(Cl)c(Cl)c2C1=O | inactive
* CCC(=O)N1CCN(C(=O)c2ccccc2)CC1 | inactive
* CC(C)(CO)Cc1cc(C(C)(C)C)c(O)c(C(C)(C)C)c1 | inactive

Now let's try a different one.
The value of outcome measured for the compound `O=C1NC(=O)c2cc(Nc3ccccc3)c(Nc3ccccc3)cc21` turned out to be inactive

----------
Tested on: Zika virus NS2B-NS3 protease (unlinked)
protocol: Optimization of GU AMC qHTS for Zika virus inhibitors: Unlinked NS2B-NS3 protease assay (AID 1347151); also: nearly all actives have a fitted effect of over 80% in size
condition.context: recombinant ZIKV NS2B-NS3 protease, fluorogenic AMC substrate; series mostly up to 52.5 µM
Results filed as inconclusive are left out. Activity calls are given as the source filed them. Calls come from the whole dose curve; as a rule, active = well fitted inhibition curve with a large enough effect; inconclusive = small, poorly fitted or top-dose-only effect; inactive = no such curve, though single readings can be large or run the other way.
Thanks in advance; please answer with one of these: YES (active), NO (inactive)

Prompt: Please indicate how the test categorized COc1ccc2c(c1)CCC1C2CC[C@@]2(C)C1CC[C@@H]2NCCCCCCN1C(=O)C=CC1=O (some centres not stated) .
Response: NO

Prompt: Please indicate how the test categorized `O=C(O)c1cc2cc(F)ccc2[nH]1` .
Response: YES

Prompt: Please indicate how the test categorized CN(C)CCC(c1ccc(Br)cc1)c1ccccn1 (configuration not stated) .
Response: NO

Prompt: Please indicate how the test categorized `c1ccc2c(c1)CCC[C@H]2Nc1nc2ccccc2[nH]1` .
Response: NO

----------
protocol: qHTS for Inhibitors of ATXN expression: Validation of Cytotoxic Assay (AID 588349); also: % is scaled to controls: 0 for no effect and ±100 for the full control effect
condition.context: cytotoxicity counter-screen for ATXN expression inhibitors, cell viability; series mostly up to 57.1 µM
Method: Spinocerebellar ataxia type 2 (SCA2) is a multisystem neurodegenerative disease caused by a dominantly-acting mutation leading to expansion of a polyQ domain in the ataxin-2 protein (ATXN2). […] […] cultured cells will be dosed with titrated compounds and incubated for 72 hr at 37 degrees C. Toxicity will be assessed using the CellTiter Glo kit (Promega), which uses intracellular ATP concentration as a viability marker.
Results filed as inconclusive are left out. Activity calls are given as the source filed them. The call rests on the fitted dose curve; in most records, active means well fitted cell-killing curve with a large enough effect; inconclusive means small, poorly fitted or top-dose-only effect, or effect the other way; inactive means flat fitted curve, though single readings scatter.
Thanks in advance; please answer with one of these: TRUE for active, FALSE for inactive

- COc1ccc2c(c1)CCC1C2CC[C@@]2(C)C1CC[C@@H]2NCCCCCCN1C(=O)C=CC1=O (stereo not given in full): FALSE
- COC(=O)[C@H](NC(=O)c1cc(-c2ccccc2)nc2ccccc12)c1ccccc1: FALSE
- NC1CCN(O)C1=O (stereo not given): FALSE
- O=c1ccn([C@@H]2O[C@H](COP(=O)(O)OP(=O)(O)O)[C@@H](O)[C@H]2O)c(=O)[nH]1: FALSE
- CCCCS(=N)(=O)CC[C@H](N)C(=O)O (stereo not given in full): FALSE
- CC1=C(C(=O)O)N2C(=O)[C@@H](NC(=O)C(N)C3=CCC=CC3)[C@H]2SC1 (stereo not given in full): FALSE
- NCCS(=O)O: FALSE
- NC(=O)CC[C@H](N)C(=O)O: FALSE

Proceed to the following item.
Prompt: Please indicate how the test categorized `Nn1nnc2ccccc21` .
Response: FALSE

----------
measured.on: Phenylethanolamine N-methyltransferase (Homo sapiens)
protocol: Confirmatory Screen for Target Class Profiling of Small Molecule Inhibitors of Methyltransferases (AID 1745852)
condition.context: MTase-Glo luminescence, SAH detection, recombinant enzyme; measured here: PNMT max response; stronger effect = lower value
Documented activity across a set of compounds

// worked examples, activity included
- N=C(N)SCCc1cnc[nH]1: -8.19%
- CC1CCN=C(N)S1 (centres undefined): -0.769%

The value of activity measured for the compound `CCCc1c(-c2ccc(O)cc2)nn(-c2ccc(O)cc2)c1-c1ccc(O)cc1` turned out to be -22%

----------
measured.on: ATPase family AAA domain-containing protein 5 (Homo sapiens) (UniProt Q96QE3)
Sequence (Q96QE3 whole entry, looked up, the tested form may be a part): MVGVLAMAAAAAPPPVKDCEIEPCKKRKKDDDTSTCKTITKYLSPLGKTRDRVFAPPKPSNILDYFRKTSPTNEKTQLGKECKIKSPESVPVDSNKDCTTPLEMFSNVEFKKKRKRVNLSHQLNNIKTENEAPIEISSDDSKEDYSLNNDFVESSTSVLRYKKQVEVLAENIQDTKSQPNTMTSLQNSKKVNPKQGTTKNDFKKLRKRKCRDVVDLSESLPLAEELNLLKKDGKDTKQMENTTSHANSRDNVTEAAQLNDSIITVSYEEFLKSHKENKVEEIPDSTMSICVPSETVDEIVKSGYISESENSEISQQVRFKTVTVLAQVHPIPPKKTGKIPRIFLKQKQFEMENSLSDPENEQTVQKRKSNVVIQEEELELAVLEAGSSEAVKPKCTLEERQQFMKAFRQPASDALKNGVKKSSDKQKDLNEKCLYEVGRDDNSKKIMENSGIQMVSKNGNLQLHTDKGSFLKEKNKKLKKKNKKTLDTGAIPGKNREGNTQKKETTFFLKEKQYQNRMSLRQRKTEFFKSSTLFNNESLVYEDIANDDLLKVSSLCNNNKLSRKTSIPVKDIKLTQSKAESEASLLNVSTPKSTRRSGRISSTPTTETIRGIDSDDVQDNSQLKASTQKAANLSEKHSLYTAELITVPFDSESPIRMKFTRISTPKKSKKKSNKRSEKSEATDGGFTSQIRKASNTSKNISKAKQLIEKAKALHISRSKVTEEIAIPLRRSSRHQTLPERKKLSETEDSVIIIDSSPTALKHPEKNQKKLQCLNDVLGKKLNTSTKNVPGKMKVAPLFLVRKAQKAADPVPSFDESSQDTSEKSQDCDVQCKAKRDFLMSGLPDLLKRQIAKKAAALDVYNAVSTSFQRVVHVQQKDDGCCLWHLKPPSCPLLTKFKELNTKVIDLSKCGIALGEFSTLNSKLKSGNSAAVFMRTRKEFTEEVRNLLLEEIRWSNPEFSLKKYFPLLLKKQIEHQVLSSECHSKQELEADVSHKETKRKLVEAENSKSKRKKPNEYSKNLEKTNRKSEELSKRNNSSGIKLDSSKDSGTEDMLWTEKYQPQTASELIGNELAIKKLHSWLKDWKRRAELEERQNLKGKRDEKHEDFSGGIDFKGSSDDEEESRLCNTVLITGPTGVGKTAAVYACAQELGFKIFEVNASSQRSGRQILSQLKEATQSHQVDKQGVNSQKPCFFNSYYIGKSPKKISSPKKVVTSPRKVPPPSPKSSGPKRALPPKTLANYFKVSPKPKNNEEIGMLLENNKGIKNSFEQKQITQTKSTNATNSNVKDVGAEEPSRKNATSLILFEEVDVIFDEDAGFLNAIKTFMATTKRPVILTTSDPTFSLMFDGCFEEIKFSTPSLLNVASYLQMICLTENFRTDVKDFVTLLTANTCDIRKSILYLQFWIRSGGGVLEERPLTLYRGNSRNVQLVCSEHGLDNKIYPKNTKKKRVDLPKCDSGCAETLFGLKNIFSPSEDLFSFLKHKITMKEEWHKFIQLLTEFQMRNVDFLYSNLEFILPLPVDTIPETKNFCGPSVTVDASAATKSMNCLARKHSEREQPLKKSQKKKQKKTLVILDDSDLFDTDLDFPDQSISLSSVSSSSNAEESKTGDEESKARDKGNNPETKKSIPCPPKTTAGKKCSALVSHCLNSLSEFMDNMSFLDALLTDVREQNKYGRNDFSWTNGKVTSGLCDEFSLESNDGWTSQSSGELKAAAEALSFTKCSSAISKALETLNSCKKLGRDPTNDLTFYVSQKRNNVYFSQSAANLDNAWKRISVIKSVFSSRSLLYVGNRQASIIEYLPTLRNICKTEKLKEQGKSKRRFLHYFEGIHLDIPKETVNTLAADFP
protocol: Validation screen for small molecules that inhibit ELG1-dependent DNA repair in human embryonic kidney (HEK293T) cells expressing luciferase-tagged ELG1 (AID 493107); also: nearly all actives have a fitted effect of over 70% in size
condition.context: HEK293T ELG1-luciferase level, luminescence, 5-fluorouridine co-treatment, 16 h; series mostly up to 46.1 µM
Text: NIH Molecular Libraries Probe Production Network [MLPCN] NIH Chemical Genomics Center [NCGC] Assay Provider: Kyungjae Myung, NHGRI, NIH Keywords: MLPCN, qHTS, NCGC, genotoxicity, cancer Cancer cells divide rapidly compared to normal cells in the body. During cell division, cancer cells need to duplicate their genome by DNA replication. The failure of genome duplication leads to cancer cells' death. […] With this in mind, we developed a quantitative high-throughput ELG1-luciferase reporter gene assay. […]
Results filed as inconclusive are left out. Active and inactive are the calls of the source. The call rests on the fitted dose curve; in most records, active means well fitted inhibition curve with a large enough effect; inconclusive means small, poorly fitted or top-dose-only effect, or effect the other way; inactive means flat fitted curve, though single readings scatter.
Thanks in advance; please answer with one of these: active, inactive

Use the examples below as a reference point.
• Cc1ccc([N+](=O)[O-])cc1S(=O)(=O)N(C)C = inactive
• CCCCOc1cc(CC2CNC(=O)N2)ccc1OC (configuration not stated) = inactive
• O=C(O)C1=CCCNC1 = inactive
• Oc1cc2c(cc1O)C(c1ccccc1)CNCC2 (configuration not stated) = inactive
• N[C@@H](CS(=O)O)C(=O)O = inactive

Prompt: Please indicate how the test categorized `O=C(O)c1cc2cc(F)ccc2[nH]1` .
Response: inactive

Prompt: Please indicate how the test categorized `C=CCNc1ncnc2ccc(Br)cc12` .
Response: active

----------
protocol: NS1 protein of Zika virus - qHTS assay to identify small molecule inhibitors in human HEK 293 cells (AID 1347053);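 also: plate controls were infected untreated cells for no effect and uninfected cells for full effect; nearly all actives have a fitted effect of over 55% in size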
condition.context: HEK293 ZIKV MR766 infection, NS1 TR-FRET, 24 h; series mostly up to 46.1 µM
Inconclusive results are not listed. The source made the active and inactive calls. Calls follow the shape of the dose curve; as a rule, active = well fitted inhibition curve with a large enough effect; inconclusive = small, poorly fitted or top-dose-only effect; inactive = no such curve, though single readings can be large or run the other way.
attribute.measured: outcome

• O=[N+]([O-])c1cccc2cn[nH]c12 = inactive
• Brc1c(Br)c(Br)c2[nH]cnc2c1Br = inactive
• O=C(O)C1CCNCC1 = inactive
